target: PDE1B (Homo sapiens)
Sequence (Q01064 whole entry): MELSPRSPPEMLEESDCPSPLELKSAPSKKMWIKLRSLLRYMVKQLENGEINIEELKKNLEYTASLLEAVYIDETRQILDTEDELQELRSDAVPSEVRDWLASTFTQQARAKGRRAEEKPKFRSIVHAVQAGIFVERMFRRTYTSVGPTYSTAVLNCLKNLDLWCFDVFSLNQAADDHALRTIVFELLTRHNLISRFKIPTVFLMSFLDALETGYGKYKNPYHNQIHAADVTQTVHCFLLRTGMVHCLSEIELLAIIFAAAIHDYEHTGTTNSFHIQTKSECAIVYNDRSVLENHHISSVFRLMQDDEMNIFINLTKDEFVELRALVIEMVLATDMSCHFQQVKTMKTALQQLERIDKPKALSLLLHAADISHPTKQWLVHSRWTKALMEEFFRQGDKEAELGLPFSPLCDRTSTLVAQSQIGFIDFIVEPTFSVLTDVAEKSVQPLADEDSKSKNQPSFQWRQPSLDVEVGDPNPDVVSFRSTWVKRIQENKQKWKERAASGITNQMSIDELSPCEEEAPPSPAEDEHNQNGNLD
pIC50: −log10 of the molar value.

| molecule | tested-system | pIC50 |
| --- | --- | --- |
| CC1OCCC1c1ncc2c(=O)n(C)c(Cc3ccc(-c4cccc(F)n4)cc3)cn12 (single isomer, unassigned; isomer 3) [Example 31] | PDE1B (Homo sapiens) | 8.40 |
| CCc1ncc2c(=O)n(C)c(Cc3ccc(-c4cccc(F)n4)cc3)cn12 | PDE1B (Homo sapiens) | 7.25 |
| Cn1c(Cc2ccc(-c3cccc(F)n3)cc2)cn2c(C3CCOC3)ncc2c1=O (single isomer, unassigned; isomer 1) | PDE1B (Homo sapiens) | 7.80 |
| CCCc1ncc2c(=O)n(C)c(Cc3ccc(-c4cccc(F)n4)cc3)cn12 | PDE1B (Homo sapiens) | 7.40 |

* * *

biological target: PDE1A (Homo sapiens, UniProt P54750)
Sequence (P54750 whole entry): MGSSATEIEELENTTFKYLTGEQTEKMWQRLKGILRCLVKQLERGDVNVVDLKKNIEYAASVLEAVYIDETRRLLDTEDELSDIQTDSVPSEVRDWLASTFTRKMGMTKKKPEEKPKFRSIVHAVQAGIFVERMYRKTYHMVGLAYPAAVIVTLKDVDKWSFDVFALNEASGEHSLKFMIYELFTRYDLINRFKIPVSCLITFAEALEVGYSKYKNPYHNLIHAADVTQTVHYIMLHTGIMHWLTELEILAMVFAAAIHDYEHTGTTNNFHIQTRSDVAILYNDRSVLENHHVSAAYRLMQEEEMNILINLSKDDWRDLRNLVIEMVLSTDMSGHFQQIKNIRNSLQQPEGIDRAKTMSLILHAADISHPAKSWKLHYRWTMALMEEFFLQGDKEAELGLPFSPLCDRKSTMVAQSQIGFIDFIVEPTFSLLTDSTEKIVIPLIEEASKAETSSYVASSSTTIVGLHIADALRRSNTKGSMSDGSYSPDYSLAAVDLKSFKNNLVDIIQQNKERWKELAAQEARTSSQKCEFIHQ
observation-type: IC50 (µM)

| compound | observation-type | unit-string | observed-measurement |
| --- | --- | --- | --- |
| Cn1c(Cc2ccc(-c3cccc(F)n3)cc2)cn2c(C3CCOC3)ncc2c1=O (single isomer, unassigned; isomer 2) [Example 28] | IC50 | µM | 0.071 |
| Cn1c(Cc2ccc(-c3cccc(F)n3)cc2)cn2c(C3CCOC3)ncc2c1=O (single isomer, unassigned; isomer 1) [Example 27] | IC50 | µM | 0.057 |
| O=c1[nH]c(Cc2ccc(-c3ccccn3)cc2)cn2c(C3CCOCC3)ncc12 [Example 10] | IC50 | µM | 0.017 |
| COc1cccc(-c2ccc(Cc3cn4c(C5CCOCC5)ncc4c(=O)n3C)cc2)n1 [Example 16] | IC50 | µM | 0.024 |

* * *

Endpoint: pIC50. System: PDE1A (Homo sapiens). Items follow.
pIC50: −log10 of the molar value.
observation-type: pIC50

| compound | observation-type | observed-measurement |
| --- | --- | --- |
| Cn1c(Cc2ccc(-c3cccc(F)n3)cc2)cn2c(CC(F)(F)F)ncc2c1=O [Example 25] | pIC50 | 6.66 |
| COc1ccc(Cn2c(Cc3ccc(-c4ccccn4)cc3)cn3c(C4CCOCC4)ncc3c2=O)cc1 [Example 9] | pIC50 | 9.54 |
| COc1cccnc1-c1ccc(Cc2cn3c(C4CCOCC4)ncc3c(=O)n2C)cc1 [Example 17] | pIC50 | 7.06 |
| Cc1cccc(-c2ccc(Cc3nc4c(cnn4C4CCOCC4)c(=O)n3C)cc2)n1 [Example 3] | pIC50 | 6.46 |

* * *

Here the recorded inhibition at 10 µM is given for each entry.
target: PDE9 (Homo sapiens); test: PDE9 inhibition assay; assay type: biochemical; conditions: 10 μM of inhibitor
Sequence (O76083 whole entry): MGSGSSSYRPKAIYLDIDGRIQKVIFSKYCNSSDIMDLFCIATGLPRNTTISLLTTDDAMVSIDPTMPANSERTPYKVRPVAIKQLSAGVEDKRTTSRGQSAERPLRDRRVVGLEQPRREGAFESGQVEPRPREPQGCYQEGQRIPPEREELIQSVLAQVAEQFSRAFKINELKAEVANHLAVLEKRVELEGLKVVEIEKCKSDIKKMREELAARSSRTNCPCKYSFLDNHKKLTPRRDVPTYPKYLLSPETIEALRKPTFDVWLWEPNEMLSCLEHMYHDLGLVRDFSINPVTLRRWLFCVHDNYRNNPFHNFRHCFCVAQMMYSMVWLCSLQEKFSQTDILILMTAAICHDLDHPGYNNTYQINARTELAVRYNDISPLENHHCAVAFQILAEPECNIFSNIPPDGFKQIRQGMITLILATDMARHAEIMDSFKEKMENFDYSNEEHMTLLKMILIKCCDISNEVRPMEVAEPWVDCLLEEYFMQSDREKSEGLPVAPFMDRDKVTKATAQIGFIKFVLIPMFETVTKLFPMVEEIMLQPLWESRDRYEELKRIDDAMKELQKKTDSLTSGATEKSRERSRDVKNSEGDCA
observation-type: inhibition at 10 µM (%)

| compound | observation-type | observed-measurement |
| --- | --- | --- |
| Cn1c(Cc2ccc(-c3cccc(F)n3)cc2)nc2c(cnn2C2CCOCC2)c1=O | inhibition at 10 µM | 17 |
| Cn1c(Cc2ccc(-c3cccc(F)n3)cc2)cn2c(C3CCOCC3)ncc2c1=O | inhibition at 10 µM | 14 |
| COc1ccc(Cn2c(Cc3ccc(-c4ccccn4)cc3)cn3c(C4CCOCC4)ncc3c2=O)cc1 | inhibition at 10 µM | 39 |
| COc1cccnc1-c1ccc(Cc2cn3c(C4CCOCC4)ncc3c(=O)n2C)cc1 | inhibition at 10 µM | 2 |
| CCCc1ncc2c(=O)n(C)c(Cc3ccc(-c4cccc(F)n4)cc3)cn12 | inhibition at 10 µM | 2 |
| Cn1c(Cc2ccc(-c3cccc(F)n3)cc2)cn2c(CC(F)(F)F)ncc2c1=O | inhibition at 10 µM | 9 |
| Cn1cnc(-c2ccc(Cc3cn4c(C5CCOCC5)ncc4c(=O)n3C)cc2)c1 | inhibition at 10 µM | -6 |
| Cn1c(Cc2ccc(-c3ccccn3)cc2)cn2c(C3CCOCC3)ncc2c1=O | inhibition at 10 µM | -10 |
| COc1ccc(Cn2c(CN3CCN(c4ccccn4)CC3)cn3c(C4CCOCC4)ncc3c2=O)cc1 | inhibition at 10 µM | 19 |
| Cn1c(Cc2ccc(-c3ccncn3)cc2)cn2c(C3CCOCC3)ncc2c1=O | inhibition at 10 µM | 14 |
| Cn1c(Cc2ccc(-c3ccccc3)cc2)cn2c(C3CCOCC3)ncc2c1=O | inhibition at 10 µM | 7 |
| COc1cccc(-c2ccc(Cc3cn4c(C5CCOCC5)ncc4c(=O)n3C)cc2)n1 | inhibition at 10 µM | 7 |
| Cn1c(Cc2ccc(-c3cccc(F)n3)cc2)cn2c(C3CCOC3)ncc2c1=O (single isomer, unassigned; isomer 1) | inhibition at 10 µM | 4 |
| Cc1cccc(-c2ccc(Cc3cc4c(cnn4C4CCOCC4)c(=O)n3C)cc2)n1 | inhibition at 10 µM | 10 |
| CCn1c(Cc2ccc(-c3ccccn3)cc2)cn2c(C3CCOCC3)ncc2c1=O | inhibition at 10 µM | 4 |
| Cn1c(Cc2ccc(-c3cccc(C(F)F)n3)cc2)cn2c(C3CCOCC3)ncc2c1=O | inhibition at 10 µM | 6 |
| Cn1c(Cc2ccc(-c3ccccn3)cc2)nc2c(cnn2C2CCOCC2)c1=O | inhibition at 10 µM | 5 |
